Target: PDE10A1 (Homo sapiens, UniProt Q9Y233)
Construct: purchased Biomol (BPS Bioscience) BPS-60385
Sequence (Q9Y233 1-779 isoform Q9Y233-1): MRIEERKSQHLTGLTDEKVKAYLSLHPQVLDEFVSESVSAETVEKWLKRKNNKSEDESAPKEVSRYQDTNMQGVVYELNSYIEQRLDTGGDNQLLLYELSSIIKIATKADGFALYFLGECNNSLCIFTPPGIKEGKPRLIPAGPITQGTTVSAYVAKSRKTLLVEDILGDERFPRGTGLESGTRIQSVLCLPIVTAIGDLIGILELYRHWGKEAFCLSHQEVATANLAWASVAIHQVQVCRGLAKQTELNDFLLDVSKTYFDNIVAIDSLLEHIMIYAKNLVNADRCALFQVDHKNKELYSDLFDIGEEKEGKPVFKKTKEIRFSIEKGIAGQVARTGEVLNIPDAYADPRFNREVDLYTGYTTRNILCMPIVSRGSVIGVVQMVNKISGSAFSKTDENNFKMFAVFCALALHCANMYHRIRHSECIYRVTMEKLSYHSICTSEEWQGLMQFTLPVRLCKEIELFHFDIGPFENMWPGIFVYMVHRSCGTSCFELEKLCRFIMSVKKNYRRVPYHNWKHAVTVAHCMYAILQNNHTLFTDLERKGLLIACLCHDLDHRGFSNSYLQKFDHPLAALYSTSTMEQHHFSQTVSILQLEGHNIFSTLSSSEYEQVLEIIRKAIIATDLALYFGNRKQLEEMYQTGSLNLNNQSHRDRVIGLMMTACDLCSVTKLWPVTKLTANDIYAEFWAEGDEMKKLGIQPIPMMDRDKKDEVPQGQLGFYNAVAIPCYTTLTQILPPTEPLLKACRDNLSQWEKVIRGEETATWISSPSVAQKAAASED
Assay: PDE10A1 inhibition by fluorescence polarization
Type: biochemical
Details: PDE10A1 kit, read-out: IC50 (μM), inhibitory effect on PDE10A1

- SMILES: "N#Cc1ccc(COc2cccc(C3=CCN(Cc4nc5sc(C(=O)O)cc5n4C[C@@H]4CCO4)CC3)n2)c(F)c1"
  SUBJECT_OF_TEST: "PDE10A1 (Homo sapiens, UniProt Q9Y233)"
  IC50: "> 500 µM"

====

Target: hERG potassium channel (Homo sapiens, UniProt Q12809)
Sequence (Q12809 whole entry): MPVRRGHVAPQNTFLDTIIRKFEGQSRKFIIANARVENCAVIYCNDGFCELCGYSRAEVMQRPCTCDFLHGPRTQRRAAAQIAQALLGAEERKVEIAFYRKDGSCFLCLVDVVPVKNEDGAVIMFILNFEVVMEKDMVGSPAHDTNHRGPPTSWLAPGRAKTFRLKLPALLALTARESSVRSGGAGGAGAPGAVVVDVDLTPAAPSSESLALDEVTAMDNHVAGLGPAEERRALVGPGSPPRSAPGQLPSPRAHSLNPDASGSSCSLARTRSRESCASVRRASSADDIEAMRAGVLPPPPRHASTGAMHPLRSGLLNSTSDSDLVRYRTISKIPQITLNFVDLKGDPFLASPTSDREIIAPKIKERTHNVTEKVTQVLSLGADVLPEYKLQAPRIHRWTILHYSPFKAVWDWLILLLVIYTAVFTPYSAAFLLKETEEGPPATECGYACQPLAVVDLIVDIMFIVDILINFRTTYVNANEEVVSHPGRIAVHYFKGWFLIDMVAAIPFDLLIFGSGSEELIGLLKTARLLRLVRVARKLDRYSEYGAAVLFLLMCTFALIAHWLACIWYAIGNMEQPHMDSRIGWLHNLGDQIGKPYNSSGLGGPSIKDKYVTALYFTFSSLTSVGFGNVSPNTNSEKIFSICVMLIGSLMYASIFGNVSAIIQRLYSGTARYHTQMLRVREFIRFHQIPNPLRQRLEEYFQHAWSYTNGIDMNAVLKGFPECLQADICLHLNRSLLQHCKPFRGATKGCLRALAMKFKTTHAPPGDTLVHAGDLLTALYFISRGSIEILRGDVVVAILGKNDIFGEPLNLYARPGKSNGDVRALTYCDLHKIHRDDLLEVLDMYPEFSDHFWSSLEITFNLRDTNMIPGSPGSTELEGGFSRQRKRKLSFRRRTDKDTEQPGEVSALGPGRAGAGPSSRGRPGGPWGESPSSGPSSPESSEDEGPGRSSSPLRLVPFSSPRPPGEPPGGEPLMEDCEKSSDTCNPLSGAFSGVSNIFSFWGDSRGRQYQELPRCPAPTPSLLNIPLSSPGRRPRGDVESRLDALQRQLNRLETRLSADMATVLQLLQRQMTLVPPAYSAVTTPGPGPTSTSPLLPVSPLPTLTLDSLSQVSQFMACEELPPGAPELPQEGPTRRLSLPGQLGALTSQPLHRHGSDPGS
Test: Effects on hERG potassium channels, manual whole cell patch-clamp in CHO cells
Conditions: hERG potassium current, room temperature
Reported IC50 values for a set of compounds

- COMPOUND: "N#Cc1ccc(COc2cccc(C3=CCN(Cc4nc5sc(C(=O)O)cc5n4C[C@@H]4CCO4)CC3)n2)c(F)c1"
  READING_QUALIFIER: "="
  IC50 [µM]: 52.2
- COMPOUND: "CC1(c2ccc(C#N)cc2F)Oc2cccc(C3CCN(Cc4nc5sc(C(=O)O)cc5n4C[C@@H]4CCO4)CC3)c2O1 (stereo partly shown)"
  READING_QUALIFIER: ">"
  IC50 [µM]: 40
- COMPOUND: "N#Cc1ccc(COc2cccc(C3CCN(Cc4nc5sc(C(=O)O)cc5n4C[C@@H]4CCO4)CC3)n2)c(F)c1"
  READING_QUALIFIER: "="
  IC50 [µM]: 33.6
- COMPOUND: "N#Cc1ccc(COc2cccc(-c3ccc(Cc4nc5sc(C(=O)O)cc5n4C[C@@H]4CCO4)c(F)c3)n2)c(F)c1"
  READING_QUALIFIER: ">"
  IC50 [µM]: 40

====

Assay: Stability test in monkey liver microsomes
Format: in vitro ADME
Conditions: monkey, microsomes
EXPERIMENTAL_ENDPOINT: microsomal CLint at 1 μM (µL/min/mg)

- SMILES: "N#Cc1ccc(COc2cccc(C3=CCN(Cc4nc5sc(C(=O)O)cc5n4C[C@@H]4CCO4)CC3)n2)c(F)c1"
  RESULT_NUMBER: 1.6

====

Biological target: CYP2D6 (Homo sapiens, UniProt P10635)
Sequence (P10635 whole entry): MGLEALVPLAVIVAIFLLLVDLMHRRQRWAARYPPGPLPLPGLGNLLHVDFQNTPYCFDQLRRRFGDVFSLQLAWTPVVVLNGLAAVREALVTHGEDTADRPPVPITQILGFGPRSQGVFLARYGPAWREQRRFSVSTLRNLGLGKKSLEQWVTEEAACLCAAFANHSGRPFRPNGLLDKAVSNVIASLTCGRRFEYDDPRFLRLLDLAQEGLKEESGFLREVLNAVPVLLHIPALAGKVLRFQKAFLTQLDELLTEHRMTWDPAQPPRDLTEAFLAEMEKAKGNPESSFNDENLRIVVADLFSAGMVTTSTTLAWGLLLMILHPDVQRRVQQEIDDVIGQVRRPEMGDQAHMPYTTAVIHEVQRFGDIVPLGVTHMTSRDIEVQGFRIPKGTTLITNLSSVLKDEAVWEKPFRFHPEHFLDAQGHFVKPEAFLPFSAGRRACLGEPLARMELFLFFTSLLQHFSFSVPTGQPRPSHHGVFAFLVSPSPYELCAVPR
pIC50: −log10 of the molar value.

- SMILES: "N#Cc1ccc(COc2cccc(-c3ccc(Cc4nc5sc(C(=O)O)cc5n4C[C@@H]4CCO4)c(F)c3)n2)c(F)c1"
  pIC50: "< 4.30"

====

Assay: Stability test in human liver microsomes
Format: in vitro ADME
Conditions: human liver microsomes 0.5 mg/mL, 1 μM compound, NADPH, 37° C.; read-out: CLint(mic)
Experimental: 7. Stability Test in Human Liver Microsomes At 37° C., 1 μM of the test compound was incubated with human liver microsomes (0.5 mg/mL) supplemented with NADPH regeneration system for 5, 10, 20, 30 and 60 minutes, and then LC-MS/MS method was used to detect the concentration of the test compound in the generated sample. […]
EXPERIMENTAL_ENDPOINT: microsomal CLint at 1 μM (µL/min/mg)

- MOLECULE: "N#Cc1ccc(COc2cccc(-c3ccc(Cc4nc5ccc(C(=O)O)cc5n4C[C@@H]4CCO4)c(F)c3)n2)c(F)c1 [Compound DZ-6, reference compound]"
  RESULT_NUMBER: 8.01
- MOLECULE: "N#Cc1ccc(COc2cccc(-c3ccc(Cc4nc5sc(C(=O)O)cc5n4C[C@@H]4CCO4)c(F)c3)n2)c(F)c1"
  RESULT_NUMBER: 2.5

====

Assay: Stability test in mouse liver microsomes
Format: in vitro ADME
Details: mouse liver microsomes 0.5 mg/mL, 1 μM compound, NADPH, 37° C.

- COMPOUND: "N#Cc1ccc(COc2cccc(C3=CCN(Cc4nc5sc(C(=O)O)cc5n4C[C@@H]4CCO4)CC3)n2)c(F)c1 [Compound 2]"
  UNIT_ABBREVIATION: "h"
  half-life at 1 μM: 23.6
- COMPOUND: "CC1(c2ccc(C#N)cc2F)Oc2cccc(C3CCN(Cc4nc5sc(C(=O)O)cc5n4C[C@@H]4CCO4)CC3)c2O1 (stereo partly shown) [Compound 5-2]"
  UNIT_ABBREVIATION: "h"
  half-life at 1 μM: 93.1
- COMPOUND: "N#Cc1ccc(COc2cccc(-c3ccc(Cc4nc5ccc(C(=O)O)cc5n4C[C@@H]4CCO4)c(F)c3)n2)c(F)c1 [Compound DZ-6, reference compound]"
  UNIT_ABBREVIATION: "h"
  half-life at 1 μM: 2.17
- COMPOUND: "N#Cc1ccc(COc2cccc(-c3ccc(Cc4nc5sc(C(=O)O)cc5n4C[C@@H]4CCO4)c(F)c3)n2)c(F)c1 [Compound 6]"
  UNIT_ABBREVIATION: "h"
  half-life at 1 μM: 4.93

====

Listing of entries alongside the reported microsomal CLint at 1 μM.
Experiment: Stability test in mouse liver microsomes
Assay type: in vitro ADME
Details: mouse liver microsomes 0.5 mg/mL, 1 μM compound, NADPH, 37° C.; read-out: CLint(mic)
Protocol: 3. Stability Test in Mouse Liver Microsomes At 37° C., 1 μM of the test compound was incubated with mouse liver microsomes (0.5 mg/mL) supplemented with NADPH regeneration system for 5, 10, 20, 30 and 60 minutes, and then LC-MS/MS method was used to detect the concentration of the test compound in the generated sample. […]

- MOLECULE: "CC1(c2ccc(C#N)cc2F)Oc2cccc(C3CCN(Cc4nc5sc(C(=O)O)cc5n4C[C@@H]4CCO4)CC3)c2O1 (stereo partly shown)"
  microsomal CLint at 1 μM, µL/min/mg: 0.252
- MOLECULE: "N#Cc1ccc(COc2cccc(-c3ccc(Cc4nc5ccc(C(=O)O)cc5n4C[C@@H]4CCO4)c(F)c3)n2)c(F)c1 [Compound DZ-6, reference compound]"
  microsomal CLint at 1 μM, µL/min/mg: 10.6
- MOLECULE: "N#Cc1ccc(COc2cccc(-c3ccc(Cc4nc5sc(C(=O)O)cc5n4C[C@@H]4CCO4)c(F)c3)n2)c(F)c1"
  microsomal CLint at 1 μM, µL/min/mg: 4.69
- MOLECULE: "N#Cc1ccc(COc2cccc(C3=CCN(Cc4nc5sc(C(=O)O)cc5n4C[C@@H]4CCO4)CC3)n2)c(F)c1"
  microsomal CLint at 1 μM, µL/min/mg: 0.977

====

Assay: Evaluation of pharmacokinetics in mice
Format: in vivo
Settings: male, mouse, plasma, oral; C57 mice, intravenous 5 mg/kg and intragastric 20 mg/kg

- SMILES: "N#Cc1ccc(COc2cccc(-c3ccc(Cc4nc5sc(C(=O)O)cc5n4C[C@@H]4CCO4)c(F)c3)n2)c(F)c1"
  bioavailability: "> 25%"
